system: anaesthesized rats; test: wheal test, intradermal injection; format: in vivo, rat; parameters: unit not given here; conditions: Table XIV and text, unit not given
Starred links: 1 amine or outer side, 2 acyl side, 3 side chain; linkers in the order of their positions; H or OH if unused. Non-standard residues stand in square brackets, D forms with d. Residues, ends and D or L forms follow the SMILES beside them. *: point of attachment. dAla(cis-4-NHCOPyz-cHex) = N[C@H](C[C@H]1CC[C@@H](NC(=O)c2cnccn2)CC1)C(=O)O; X2 = O=C(N[C@H]1CC[C@@H](C[C@H](N[*:1])C(=O)[*:2])CC1)c1cnccn1; dPhe(4-Cl) = N[C@H](Cc1ccc(Cl)cc1)C(=O)O; d2Nal = N[C@H](Cc1ccc2ccccc2c1)C(=O)O; Lys(iPr) = CC(C)NCCCC[C@H](N)C(=O)O; Orn(iPr) = CC(C)NCCC[C@H](N)C(=O)O; aIle = CC[C@@H](C)[C@H](N)C(=O)O; d3Pal = N[C@H](Cc1cccnc1)C(=O)O; Picolinoyl = O=C(c1ccccn1)*
Quick reference: Wheal (wheal response) of the listed items.
Respond using a number only.

The following molecules have reported results that may help.
CC(=O)N[C@H](Cc1ccc2ccccc2c1)C(=O)N[C@H](Cc1ccc(Cl)cc1)C(=O)N[C@H](Cc1cccnc1)C(=O)N[C@@H](CO)C(=O)N[C@@H](CCCCNC(=O)c1ccccn1)C(=O)N[C@H](CCCCNC(=O)c1ccccn1)C(=O)N[C@@H](CC(C)C)C(=O)N[C@@H](CCCCNC(C)C)C(=O)N1CCC[C@H]1C(=O)N[C@H](C)C(N)=O [IBR 25147] (Ac-[d2Nal][dPhe(4-Cl)][d3Pal]SK(Picolinoyl)[dK](Picolinoyl)L[Lys(iPr)]P[dA]-NH2) = 123.0
CC(=O)N[C@H](Cc1ccc2ccccc2c1)C(=O)N[C@H](Cc1ccc(Cl)cc1)C(=O)N[C@H](Cc1cccnc1)C(=O)N[C@@H](CO)C(=O)N[C@@H](CCCCNC(=O)c1ccccn1)C(=O)N[C@H](C[C@H]1CC[C@@H](NC(=O)c2cnccn2)CC1)C(=O)N[C@H](C(=O)N[C@@H](CCCCNC(C)C)C(=O)N1CCC[C@H]1C(=O)N[C@H](C)C(N)=O)C(C)C [compound 26325] (Ac-[d2Nal][dPhe(4-Cl)][d3Pal]SK(Picolinoyl)[dAla(cis-4-NHCOPyz-cHex)]V[Lys(iPr)]P[dA]-NH2) = 127.8
CC(=O)N[C@H](Cc1ccc2ccccc2c1)C(=O)N[C@H](Cc1ccc(Cl)cc1)C(=O)N[C@H](Cc1cccnc1)C(=O)N[C@@H](CO)C(=O)N[C@@H](CCCCNC(=O)c1ccccn1)C(=O)N[C@H](C[C@H]1CC[C@@H](NC(=O)c2cnccn2)CC1)C(=O)N[C@@H](CC(C)C)C(=O)N[C@@H](CCCCNC(C)C)C(=O)N1CCC[C@H]1C(=O)N[C@H](C)C(N)=O [compound 25897] (Ac-[d2Nal][dPhe(4-Cl)][d3Pal]SK(Picolinoyl)[dAla(cis-4-NHCOPyz-cHex)]L[Lys(iPr)]P[dA]-NH2) = 122.8
CC(=O)N[C@H](Cc1ccc2ccccc2c1)C(=O)N[C@H](Cc1ccc(Cl)cc1)C(=O)N[C@H](Cc1cccnc1)C(=O)N[C@@H](CO)C(=O)N[C@@H](C[C@H]1CC[C@@H](NC(=O)c2cnccn2)CC1)C(=O)N[C@H](C[C@H]1CC[C@@H](NC(=O)c2cnccn2)CC1)C(=O)N[C@@H](CC(C)C)C(=O)N[C@@H](CCCCNC(C)C)C(=O)N1CCC[C@H]1C(=O)N[C@H](C)C(N)=O [compound 26326] (Ac-[d2Nal][dPhe(4-Cl)][d3Pal]S[X2][dAla(cis-4-NHCOPyz-cHex)]L[Lys(iPr)]P[dA]-NH2) = 115.5

# Wheal (wheal response) lookup, item CC[C@@H](C)[C@H](NC(=O)[C@@H](CCCCNC(=O)c1ccccn1)NC(=O)[C@H](CCCCNC(=O)c1ccccn1)NC(=O)[C@H](CO)NC(=O)[C@@H](Cc1cccnc1)NC(=O)[C@@H](Cc1ccc(Cl)cc1)NC(=O)[C@@H](Cc1ccc2ccccc2c1)NC(C)=O)C(=O)N[C@@H](CCCNC(C)C)C(=O)N1CCC[C@H]1C(=O)N[C@H](C)C(N)=O [IBR 26178] (Ac-[d2Nal][dPhe(4-Cl)][d3Pal]SK(Picolinoyl)[dK](Picolinoyl)[aIle][Orn(iPr)]P[dA]-NH2)
78.6

These data points were gathered from patent US5763404A.
